# tgt: Neurogenic locus notch homolog protein 3 (Homo sapiens) (UniProt Q9UM47)
# Sequence (Q9UM47 whole entry, looked up): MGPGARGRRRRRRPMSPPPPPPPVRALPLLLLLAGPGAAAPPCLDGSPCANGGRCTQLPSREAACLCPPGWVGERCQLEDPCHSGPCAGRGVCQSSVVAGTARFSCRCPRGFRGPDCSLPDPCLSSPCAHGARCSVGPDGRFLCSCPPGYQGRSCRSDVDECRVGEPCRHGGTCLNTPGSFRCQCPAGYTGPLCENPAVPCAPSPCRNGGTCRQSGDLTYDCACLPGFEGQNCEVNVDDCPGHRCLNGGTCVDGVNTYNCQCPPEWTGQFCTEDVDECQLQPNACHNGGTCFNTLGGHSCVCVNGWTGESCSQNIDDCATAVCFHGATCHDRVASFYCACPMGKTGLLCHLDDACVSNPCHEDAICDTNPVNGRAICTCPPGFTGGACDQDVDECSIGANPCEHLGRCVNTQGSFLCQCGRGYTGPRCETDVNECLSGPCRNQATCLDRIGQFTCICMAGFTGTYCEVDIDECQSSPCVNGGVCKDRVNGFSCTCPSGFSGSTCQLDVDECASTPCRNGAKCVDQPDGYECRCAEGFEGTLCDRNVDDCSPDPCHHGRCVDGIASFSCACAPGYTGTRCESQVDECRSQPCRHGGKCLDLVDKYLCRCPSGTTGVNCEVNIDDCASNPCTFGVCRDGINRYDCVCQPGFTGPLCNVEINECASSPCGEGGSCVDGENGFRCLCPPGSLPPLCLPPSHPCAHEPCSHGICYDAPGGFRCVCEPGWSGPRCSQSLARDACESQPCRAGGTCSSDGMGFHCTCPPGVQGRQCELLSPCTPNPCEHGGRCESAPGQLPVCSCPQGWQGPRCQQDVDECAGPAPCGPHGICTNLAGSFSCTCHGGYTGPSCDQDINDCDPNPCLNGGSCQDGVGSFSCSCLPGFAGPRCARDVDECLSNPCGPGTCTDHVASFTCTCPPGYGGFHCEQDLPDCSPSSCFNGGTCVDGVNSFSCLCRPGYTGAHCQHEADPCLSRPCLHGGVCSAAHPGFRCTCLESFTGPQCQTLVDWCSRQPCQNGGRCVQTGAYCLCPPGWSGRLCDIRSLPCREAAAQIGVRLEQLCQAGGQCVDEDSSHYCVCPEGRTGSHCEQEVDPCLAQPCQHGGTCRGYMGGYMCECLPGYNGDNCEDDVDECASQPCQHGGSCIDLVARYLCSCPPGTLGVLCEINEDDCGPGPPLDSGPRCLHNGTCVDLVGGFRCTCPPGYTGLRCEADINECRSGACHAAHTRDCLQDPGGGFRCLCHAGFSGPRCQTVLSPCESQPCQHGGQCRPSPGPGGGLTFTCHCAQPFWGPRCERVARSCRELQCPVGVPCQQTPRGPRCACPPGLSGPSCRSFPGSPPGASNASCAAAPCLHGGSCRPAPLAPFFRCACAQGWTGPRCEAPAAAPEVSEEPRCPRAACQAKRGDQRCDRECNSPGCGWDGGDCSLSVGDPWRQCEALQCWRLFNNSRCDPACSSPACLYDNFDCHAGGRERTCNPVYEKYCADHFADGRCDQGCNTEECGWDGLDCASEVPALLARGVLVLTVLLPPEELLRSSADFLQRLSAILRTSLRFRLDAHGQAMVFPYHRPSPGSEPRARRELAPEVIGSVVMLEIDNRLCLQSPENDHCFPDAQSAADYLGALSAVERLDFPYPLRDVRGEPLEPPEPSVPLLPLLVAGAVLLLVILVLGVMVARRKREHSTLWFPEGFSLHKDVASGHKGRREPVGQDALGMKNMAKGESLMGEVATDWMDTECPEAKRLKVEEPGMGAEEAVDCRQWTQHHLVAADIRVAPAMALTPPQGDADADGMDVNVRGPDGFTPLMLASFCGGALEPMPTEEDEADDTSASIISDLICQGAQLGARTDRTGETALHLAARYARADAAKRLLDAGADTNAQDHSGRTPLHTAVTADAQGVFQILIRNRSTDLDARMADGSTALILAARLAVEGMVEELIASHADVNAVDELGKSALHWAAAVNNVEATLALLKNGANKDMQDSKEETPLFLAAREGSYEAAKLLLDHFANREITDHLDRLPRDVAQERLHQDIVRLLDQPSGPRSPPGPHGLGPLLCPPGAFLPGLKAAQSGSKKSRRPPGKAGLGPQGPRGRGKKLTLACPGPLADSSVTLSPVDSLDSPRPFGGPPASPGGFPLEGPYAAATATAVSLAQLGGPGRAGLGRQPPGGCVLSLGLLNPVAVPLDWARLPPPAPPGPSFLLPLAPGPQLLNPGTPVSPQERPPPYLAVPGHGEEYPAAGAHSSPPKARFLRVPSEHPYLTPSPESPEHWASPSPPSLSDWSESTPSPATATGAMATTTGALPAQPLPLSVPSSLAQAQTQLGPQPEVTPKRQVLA
# test-method-notes: NOTCH3 binders on small-molecule microarray, primary screen, biochemical, 635/667 nm fluorescence (AID 1096)
# conditions-used: NOTCH3 binding, 635 nm fluorescence, higher = more signal
quantity-measured: composite z-score
Could you keep your reply to the number by itself?

Task: Name the recorded composite z-score for COC(=O)[C@H](CCSC)NC(=O)CC=C[C@@H](C)CO .
Output: 0.703

Task: Name the recorded composite z-score for CO[C@@H](C1CCCCC1)[C@@H](C)[C@H](OCc1cccc(Br)c1)[C@@H](C)CO .
Output: 0.322

Task: Name the recorded composite z-score for COC(=O)[C@H](C)NC(=O)CCC1CC(OC(=O)NCc2ccc3c(c2)OCO3)CC2(CCCC(COC(=O)NCCc3ccc(Cl)cc3)O2)O1 (stereo partly specified) .
Output: 0.67

Task: Name the recorded composite z-score for CCN(CC)CC(O)CN1CCCCc2nc(C)c(C)cc21 (stereo unspecified) .
Output: 0.431

Task: Name the recorded composite z-score for CCOC(=O)CCN1C(=O)[C@H]2[C@H]3[C@H](O)[C@H](O)CC(=NNC(=O)OCc4ccccc4)[C@H]3CC[C@H]2C1=O .
Output: 0.032

Task: Name the recorded composite z-score for CC(C)(C)N1C(=O)[C@H]2[C@H]3[C@H](O)[C@H](O)CC(=NNC(=O)OCc4ccccc4)[C@H]3CC[C@H]2C1=O .
Output: 0.4

Task: Name the recorded composite z-score for O=C1[C@H]2[C@H]3[C@H](O)[C@H](O)CC(=NO[C@@H]4O[C@H](CO)[C@@H](O)[C@H](O)[C@H]4O)[C@H]3CC[C@H]2C(=O)N1C[C@@H]1CCCO1 .
Output: 0.0492

Task: Name the recorded composite z-score for CC1(C)O[C@H]2OC([C@H](O)CON3C(=O)c4ccccc4C3=O)[C@H](O)[C@H]2O1 (stereo partly specified) .
Output: 0.419

Task: Name the recorded composite z-score for CC(CCC(=O)OC[C@H]1O[C@H](C#Cc2ccccc2)C=C[C@@H]1Oc1ccc(C)cc1)=NO[C@@H](C)c1cc(-c2c(C)cc(C)cc2C)no1 .
Output: -1.12

Task: Name the recorded composite z-score for CCOC(=O)[C@H](CC(C)C)NC(=O)CCC1CC(OC(=O)NCc2ccc3c(c2)OCO3)CC2(CCCC(COC(=O)NCCC(C)C)O2)O1 (stereo partly specified) .
Output: 0.24

Task: Name the recorded composite z-score for O=C1[C@H]2CCn3c(=O)n(Cc4cc5c(cc4Cl)OCO5)c(=O)n3[C@H]2[C@H](O)[C@@H]2O[C@H]12 .
Output: -0.802

* * *

# test-method-notes: binders of probe aFSTL3 on microarray, primary screen, stem cell growth factor project, biochemical, small-molecule microarray, fluorescence 635/667 (AID 1064);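 note: measures binding of the biotinylated anti-FSTL3 antibody to printed compounds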
# conditions-used: higher = more signal
Please note: Criterion met applies when composite z-score is -0.4 or greater, and Criterion not met applies otherwise.

Sample answers from the record:
> print(dat)
                               smiles.entry                cat
1  CC(=O)OC[C@H]1O[C@H](CC=NO[C@@H](C)c2cn([C@H](CO)Cc3ccccc3)nn2)C=C[C@@H]1OC(C)=O  Criterion not met
2  O=C1[C@H]2[C@H]3[C@H](O)[C@H](O)CC(=NO[C@@H]4O[C@H](CO)[C@@H](O)[C@H](O)[C@H]4O)[C@H]3CC[C@H]2C(=O)N1C[C@@H]1CCCO1      Criterion met
3  CC(=O)OC[C@H]1O[C@H](CC=NO[C@@H](C)c2cc(-c3c(C)cc(C)cc3C)no2)C=C[C@@H]1OC(C)=O      Criterion met
4  O=C(NN=C1C[C@@H](O)[C@@H](O)[C@@H]2[C@@H]3C(=O)N(Cc4ccc5c(c4)OCO5)C(=O)[C@@H]3CC[C@@H]12)OCc1ccccc1      Criterion met
5  CCc1cc2c(nc1CC)CCN(CCC(C)=NOCC[C@@H]1C=C[C@H](OC(C)=O)[C@@H](COC(C)=O)O1)C2      Criterion met

Could you now consider this next compound?
Task: hey, is composite z-score for this one >= -0.4? COC(=O)CC=C[C@@H](C)[C@@H](C=NOC[C@@H](O)COCc1ccco1)NS(=O)(=O)c1ccc(C)cc1
Output: Criterion not met

* * *

# tgt: NADPH oxidase 4 (Homo sapiens) (UniProt Q9NPH5)
# Sequence (Q9NPH5 whole entry, looked up): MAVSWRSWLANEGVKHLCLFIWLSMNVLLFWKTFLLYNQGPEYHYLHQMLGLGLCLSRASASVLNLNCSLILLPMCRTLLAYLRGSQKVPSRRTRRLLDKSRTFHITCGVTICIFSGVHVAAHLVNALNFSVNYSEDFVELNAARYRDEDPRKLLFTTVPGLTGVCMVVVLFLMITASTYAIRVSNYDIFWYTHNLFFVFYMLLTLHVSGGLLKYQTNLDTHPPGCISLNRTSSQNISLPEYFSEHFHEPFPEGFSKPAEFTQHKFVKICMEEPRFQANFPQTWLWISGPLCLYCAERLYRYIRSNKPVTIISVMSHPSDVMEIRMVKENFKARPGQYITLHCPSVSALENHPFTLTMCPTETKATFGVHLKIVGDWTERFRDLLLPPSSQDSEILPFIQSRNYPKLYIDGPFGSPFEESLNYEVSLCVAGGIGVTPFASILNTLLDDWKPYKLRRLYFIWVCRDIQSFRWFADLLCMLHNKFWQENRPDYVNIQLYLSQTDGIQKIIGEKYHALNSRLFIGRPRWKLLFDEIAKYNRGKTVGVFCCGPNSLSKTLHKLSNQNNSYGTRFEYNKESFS
# test-method-notes: NOX4-dependent H2O2 signal modulators, primary screen, NOX inhibitor project, cell-based, HEK293-NOX4, tetracycline-induced, Amplex Red fluorescence (AID 1160)
# conditions-used: 45 min, higher = more signal, called active from +8 up or from −8 down
Entries annotated with measured z-score
Could you keep your reply to the number by itself?

Reference set, count: 5
molecule	z-score
CCOC(=O)CCN1C(=O)[C@H]2[C@H]3[C@H](O)[C@H](O)CC(=NOCC=C(C)CCC=C(C)C)[C@H]3CC[C@H]2C1=O	0.943
CCc1cc2c(nc1CC)CCN(CCC(C)=NOCC[C@@H]1C=C[C@H](OC(C)=O)[C@@H](COC(C)=O)O1)C2	0.615
O=C1C2=CC[C@H]3C(=O)N(Cc4ccccc4)C(=O)[C@H]3[C@H]2[C@H](O)[C@@H]2O[C@H]12	0.16
COC(=O)[C@@H]1CC[C@H](C)[C@@H](c2ccc(C)cc2)N1C(=O)c1ccc(C=NOC[C@H]2O[C@H](c3ccccc3)C=C[C@@H]2Oc2ccc(OC)cc2)cc1	0.846
CC(C)CN1CCc2nc(-c3ccccc3)c3c(c2C1)CO[C@@H](C)C3	-2.08

Task: Name the recorded z-score for CCOC(=O)[C@H](CC(C)C)NC(=O)CCC1CC(OC(=O)NCCc2ccc(F)cc2)CC2(CCCC(COC(=O)NCc3cccc(C(F)(F)F)c3)O2)O1 (stereo not given in full) .
Output: 0.703

Task: Name the recorded z-score for CC(CCN1CCCc2nc(C)c(C)cc21)=NO[C@H](C)c1cn([C@H](CO)Cc2ccccc2)nn1 .
Output: -0.076

Task: Name the recorded z-score for COC(=O)CC=C[C@@H](C)[C@@H](C=NOC[C@@H](C)[C@H](OCc1ccccc1)C(C)C)OC .
Output: -0.614

Task: Name the recorded z-score for CC(C)[C@@H](OCc1ccccc1)[C@H](C)C=NO[C@H](C)c1cn([C@@H]2COC[C@H]2O)nn1 .
Output: 0.827

Task: Name the recorded z-score for CON=C(C)CCN1CCCc2nc(C)c(C)cc21 .
Output: -1.06

* * *

# test-method-notes: CREB reporter modulators without forskolin, primary screen, cell-based, PC12, CRE-LacZ reporter, unstimulated (AID 1145)
# conditions-used: no forskolin, luminescence, 4.5 h, higher = more signal, called active from +8 up or from −8 down
Entries annotated with measured z-score
Could you keep your reply to the number by itself?

Reference set, count: 4
> print(dat)
                               smiles.entry  observed
1  COc1ccc(O[C@H]2C=C[C@@H](C#Cc3ccccc3)O[C@@H]2CO)cc1     0.653
2  O=C1[C@H]2[C@H]3[C@H](O)[C@H](O)CC(=NO[C@@H]4O[C@H](CO)[C@@H](O)[C@H](O)[C@H]4O)[C@@H]3CC[C@H]2C(=O)N1C1CCCCC1     0.342
3  CC[C@@H](c1ccccc1)n1c(=O)n2n(c1=O)[C@H]1[C@H](O)[C@@H]3O[C@@H]3C(=NOCc3ccccc3)[C@H]1CC2     0.248
4  COC(=O)CC=C[C@@H](C)[C@@H](C=NOC[C@@H](C)[C@H](OCc1ccccc1)C(C)C)NS(=O)(=O)c1ccc(C)cc1      2.87

Attention now turns to another entry.
Task: Name the recorded z-score for CON=C(C)CCN1CCCCc2nc(C)c(C)cc21 .
Output: 0.397

* * *

# tgt: Dickkopf-related protein 1 (Homo sapiens) (UniProt O94907)
# Sequence (O94907 whole entry, looked up): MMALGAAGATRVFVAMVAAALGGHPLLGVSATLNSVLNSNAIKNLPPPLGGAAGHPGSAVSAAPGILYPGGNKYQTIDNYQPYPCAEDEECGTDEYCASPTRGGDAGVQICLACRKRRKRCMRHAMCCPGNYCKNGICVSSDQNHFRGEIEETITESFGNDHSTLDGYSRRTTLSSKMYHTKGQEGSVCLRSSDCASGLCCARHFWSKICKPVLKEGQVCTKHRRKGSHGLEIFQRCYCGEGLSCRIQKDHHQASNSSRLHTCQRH
# test-method-notes: DKK1 binders on small-molecule microarrays, primary screen, biochemical, small-molecule microarray, 635 nm fluorescence scan (AID 1106);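 note: score merges emission near 667 nm with signal to noise over three replicate slides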
# conditions-used: DKK1 binding, higher = more signal
Entries annotated with measured composite z-score

> print(dat)
                                   compound                                       tgt  observed
1  CC(C)=CCCC(C)=CCON=C1[C@H]2CCn3c(=O)n(-c4ccccc4)c(=O)n3[C@H]2[C@H](O)[C@@H]2O[C@H]12  Dickkopf-related protein 1 (Homo sapiens) (UniProt O94907)     0.912

Task: Name the recorded composite z-score for C[C@@H]1CC[C@H]2C(=O)O[C@@H](CN=[N+]=[N-])CN2[C@H]1c1ccc(Br)cc1 .
Output: 0.857

Task: Name the recorded composite z-score for CCOC(=O)[C@H](Cc1ccccc1)NC(=O)CCC1CC(OC(=O)NCCc2ccc(F)cc2)CC2(CCCC(COC(=O)NCCC(C)C)O2)O1 (some centres not stated) .
Output: 0.648

Task: Name the recorded composite z-score for O=C1[C@H]2[C@H]3[C@H](O)[C@H](O)CC(=NOC[C@@H](O)COCc4ccco4)[C@@H]3CC[C@H]2C(=O)N1C1CCCCC1 .
Output: 1.46

Task: Name the recorded composite z-score for CCCNC(=O)OC[C@H]1O[C@H](CCON=C[C@@H](NS(=O)(=O)c2ccc(C)cc2)[C@H](C)C=CCC(=O)OC)C=C[C@@H]1Oc1ccc(OC)cc1 .
Output: -0.0968

Task: Name the recorded composite z-score for CCN1C(=O)[C@H]2[C@H]3[C@H](O)[C@H](O)CC(=NO[C@@H]4O[C@H](CO)[C@@H](O)[C@H](O)[C@H]4O)[C@H]3CC[C@H]2C1=O .
Output: 0.611

Task: Name the recorded composite z-score for CC(CCN1CCCc2nc(C)c(C)cc21)=NO[C@@H](C)c1cn([C@H](CO)Cc2ccccc2)nn1 .
Output: 0.928

Task: Name the recorded composite z-score for CC(CCN1CCCc2nc(C)c(C)cc21)=NO[C@H](C)c1cn([C@@H]2COC[C@H]2O)nn1 .
Output: 0.902

Task: Name the recorded composite z-score for C[C@H]1CC[C@@H](C(=O)O)N[C@@H]1c1cccc(N2CCCC2=O)c1 .
Output: 0.153

Task: Name the recorded composite z-score for CCOC(=O)NN=C1C[C@@H](O)[C@@H](O)[C@@H]2[C@@H]3C(=O)N(c4ccc(F)cc4F)C(=O)[C@@H]3CC[C@H]12 .
Output: 0.871

Task: Name the recorded composite z-score for CCOC(=O)[C@H](Cc1ccccc1)NC(=O)CCC1CC(OC(=O)NCc2cccc3ccccc23)CC2(CCCC(COC(=O)NCCOc3ccccc3)O2)O1 (some centres not stated) .
Output: 0.504

Task: Name the recorded composite z-score for COCC#Cc1ccc([C@@H]2N[C@H](C(=O)O)CC[C@H]2C)cc1 .
Output: 0.302

Task: Name the recorded composite z-score for COc1ccc(COC(=O)NN=C2C[C@@H](O)[C@@H](O)[C@@H]3[C@@H]4C(=O)N([C@@H](C)c5ccccc5)C(=O)[C@@H]4CC[C@H]23)cc1 .
Output: -0.769

Task: Name the recorded composite z-score for CCOC(=O)[C@H](Cc1ccccc1)NC(=O)CCC1CC(OC(=O)NCc2cccc3ccccc23)CC2(CCCC(COC(=O)NCC3CCCCC3)O2)O1 (some centres not stated) .
Output: 0.795
